Catalogue of self-cleavage readings, one per entry.
B1: CPEB3 Ribozyme (parent)
chain: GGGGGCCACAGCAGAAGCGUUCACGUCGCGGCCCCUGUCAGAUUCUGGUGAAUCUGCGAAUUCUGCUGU

- Variants of: B1
- protocol: self-cleavage, relative activity (ratio to wild type); higher = more cleavage; co-transcriptional
Note: the reply should be a number with no unit written.

The examples below pair each entry with its known result.
GGGGGCCACAGCACAAGCGUUCACGGCGCGGCCCCUGUCAGAUUCUGGUGAAUCUGCGAAUUCUGCUGU [G14C U26G]    0.256
GGGGGGCACAGCAGAAGCGUUCACUUCGCGGCCCCUGUCAGAUUCUGGUGAAUCUGCGAAUUCUGCUGU [C6G G25U]    0.0634
GGGGGCCACAGCAGAAGCGUUCACGUCGCGGCCCCUGUCAGAUACUGGUGAAUCUGCGAAUUCUGCCGU [U44A U67C]    0.973
GGGGGCCACAGCAGACGCGUUCACGUCGCGGCCCCUGUCAGAUUCUGGUGCAUCUGCGAAUUCUGCUGU [A16C A51C]    0.217
GGGUGCCACAGCAGAAGCGUUCACGUCCCGGCCCCUGUCAGAUUCUGGUGAAUCUGCGAAUUCUGCUGU [G4U G28C]    0.0704

# next variant below
Measured self-cleavage, GGGGGCCACAGCAGAAGCGUUCACGUCGCGGCCGCUGUCAGAUGCUGGUGAAUCUGCGAAUUCUGCUGU [C34G U44G] : 0.446
